experiment: PK of voruciclib, daily dosing continuously (Table 4); format: in vivo; details: human, plasma, oral, 500 mg, Day 1, daily dosing continuously, mean
property.name: AUC(0-inf) (ng·h/mL)
Lab book: enter the figure in ng·h/mL, no units written.

Return AUC(0-inf) for the following molecule: CN1CC[C@@H](c2c(O)cc(O)c3c(=O)cc(-c4ccc(C(F)(F)F)cc4Cl)oc23)[C@@H]1CO
41000

###

Test system: Gp2D
Experiment: 72-hour CellTiter-Glo 2.0 growth inhibition screen (single agent, 9x9 combination dose matrix)
Type: cell-based
Details: Gp2D, Colorectal; Additional Single Agent Responses (inhibition, % I), 72 h
Description: Growth inhibition was determined using a 72-hour CellTiter-Glo®2.0 proliferation assay. Combination format was a 9×9 dose matrix. […] Results have been supplied as both Chalice Analyzer files (.mcc) and raw luminescence data. Cell lines that have been preserved in liquid nitrogen are thawed and expanded in growth media (see Appendix I). […] Assay plates are incubated with compound for 3 days and are then analyzed using CellTiter-Glo 2.0. […]
Measured IC50 values are reported for all entries that follow.
Lab book: enter the figure in nM, no units written.

compound: CN1CC[C@@H](c2c(O)cc(O)c3c(=O)cc(-c4ccc(C(F)(F)F)cc4Cl)oc23)[C@@H]1CO [MEI-522(Voruciclib)]
property.name: IC50
numeric.readout: 791
--
compound: CN1CCN(c2ccc(OC(F)(F)F)c(Nc3ncc4c(n3)-c3c(c(C(N)=O)nn3CCO)CC4)c2)CC1 [Onvansertib]
property.name: IC50
numeric.readout: 25.5

Return IC50 for the following compound: CC[C@@H]1C(=O)N(C)c2cnc(Nc3ccc(C(=O)N[C@H]4CC[C@H](N5CCN(CC6CC6)CC5)CC4)cc3OC)nc2N1C(C)C [Volasertib]
2.4
